Cited source for all entries: patent US9834558B2

- system.tested: SIRT1 (Homo sapiens, UniProt Q96EB6)
- Sequence (Q96EB6 whole entry): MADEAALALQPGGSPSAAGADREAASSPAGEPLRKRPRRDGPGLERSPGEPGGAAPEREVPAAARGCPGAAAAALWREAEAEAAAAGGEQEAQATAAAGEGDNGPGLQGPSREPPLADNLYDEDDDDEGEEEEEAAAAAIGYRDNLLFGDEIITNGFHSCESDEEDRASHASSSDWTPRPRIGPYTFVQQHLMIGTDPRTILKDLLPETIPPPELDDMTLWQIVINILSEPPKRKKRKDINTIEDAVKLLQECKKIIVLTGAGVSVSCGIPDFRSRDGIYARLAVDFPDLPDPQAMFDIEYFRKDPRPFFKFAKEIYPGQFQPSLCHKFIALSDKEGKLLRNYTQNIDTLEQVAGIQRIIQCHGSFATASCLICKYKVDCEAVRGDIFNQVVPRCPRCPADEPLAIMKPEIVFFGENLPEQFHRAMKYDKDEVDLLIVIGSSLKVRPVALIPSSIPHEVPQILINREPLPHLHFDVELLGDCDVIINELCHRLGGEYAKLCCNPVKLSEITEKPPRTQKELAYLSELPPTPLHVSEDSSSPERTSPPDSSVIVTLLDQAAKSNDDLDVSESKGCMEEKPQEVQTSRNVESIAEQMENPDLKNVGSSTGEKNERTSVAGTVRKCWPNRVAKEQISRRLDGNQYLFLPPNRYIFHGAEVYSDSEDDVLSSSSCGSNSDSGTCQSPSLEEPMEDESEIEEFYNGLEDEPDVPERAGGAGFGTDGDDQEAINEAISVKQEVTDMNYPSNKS
- assay.explanation: Trp mass spectrometry assay of SIRT1 activation
- Type: biochemical
- stated.conditions: concentration giving 150% activation of SIRT1; Trp peptide substrate
measurement.kind: Tryp AVG EC1.5 (μM)

Field: example entries. Status: answers known.
>>> print(df.to_string())
                                   compound                         system_tested        observed_result
0  CC(C)(C)OC(=O)NCc1cccc(-c2ccc3c(n2)N(C(=O)Nc2ccncc2)[C@H]2CCCN3C2)c1 [Example 795]  SIRT1 (Homo sapiens, UniProt Q96EB6)  B (B (EC1.5 1-25 μM))
1  NCCCCCC(=O)NCc1cccc(NC(=O)N2c3nc(-c4cccc(C(F)(F)F)c4)ccc3N3CCC[C@H]2C3)c1 [Example 756]  SIRT1 (Homo sapiens, UniProt Q96EB6)     A (A (EC1.5<1 μM))
2  O=C(Nc1cncc(F)c1)N1c2nc(-c3cncc(C(F)(F)F)c3)ccc2N2C[C@@H](O)[C@H]1C2 [Example 691]  SIRT1 (Homo sapiens, UniProt Q96EB6)  B (B (EC1.5 1-25 μM))
3  O=C(Nc1nnc(-c2ccncc2)s1)N1c2nc(-c3cccc(C(F)(F)F)c3)ccc2N2CC[C@H]1C2 [Example 733]  SIRT1 (Homo sapiens, UniProt Q96EB6)     A (A (EC1.5<1 μM))

// next entry
Quick one: Tryp AVG EC1.5 (μM) for N=C(N)NCc1ccc(NC(=O)N2c3nc(-c4cccc(C(F)(F)F)c4)ccc3N3CCC[C@H]2C3)cc1 [Example 777] ?
A (A (EC1.5<1 μM))
